Hello, the source for this data is ChEMBL document CHEMBL3351734, in case you need it.

experiment: Cytotoxicity against human SKOV3 cells after 48 hrs by neutral red assay; assay type: cell-based; conditions: sk-ov-3, 48 h
Residues, ends and D or L forms follow the SMILES beside them. *: point of attachment. Boc = CC(C)(C)OC(=O)*; NHBn = c1ccc(CN*)cc1
measured_attribute: Activity

{"molecule": "N[C@@H](Cc1cnc(C2CCCC2)[nH]1)C(=O)N[C@@H](Cc1c[nH]c2ccccc12)C(=O)N[C@@H](Cc1cnc(C2CCCC2)[nH]1)C(=O)NCc1ccccc1", "measured_attribute": "Activity", "observed": "> 10 µg/mL"}
{"molecule": "CC(C)c1ncc(C[C@H](NC(=O)[C@H](Cc2c[nH]c3ccccc23)NC(=O)[C@@H](N)Cc2cnc(C(C)C)[nH]2)C(=O)NCc2ccccc2)[nH]1", "measured_attribute": "Activity", "observed": "> 10 µg/mL"}
{"molecule": "CC(C)(C)OC(=O)N[C@@H](Cc1cnc(C2CCCCC2)[nH]1)C(=O)N[C@@H](Cc1c[nH]c2ccccc12)C(=O)N[C@@H](Cc1cnc(C2CCCCC2)[nH]1)C(=O)NCc1ccccc1", "measured_attribute": "Activity", "observed": "> 10 µg/mL"}
{"molecule": "N[C@@H](Cc1cnc[nH]1)C(=O)N[C@@H](Cc1c[nH]c2ccccc12)C(=O)N[C@@H](Cc1cnc[nH]1)C(=O)NCc1ccccc1 (H-His-Trp-His-NHBn)", "measured_attribute": "Activity", "observed": "> 10 µg/mL"}
{"molecule": "N[C@@H](Cc1cnc(C2CCCCC2)[nH]1)C(=O)N[C@@H](Cc1c[nH]c2ccccc12)C(=O)N[C@@H](Cc1cnc(C2CCCCC2)[nH]1)C(=O)NCc1ccccc1", "measured_attribute": "Activity", "observed": "> 10 µg/mL"}
{"molecule": "C[C@@H]1[C@H](O)[C@@H](C)/C=C/C=C/C=C/C=C/C=C/C=C/C=C/[C@H](O[C@@H]2O[C@H](C)[C@@H](O)[C@H](N)[C@@H]2O)C[C@@H]2O[C@](O)(C[C@@H](O)C[C@@H](O)[C@H](O)CC[C@@H](O)C[C@@H](O)CC(=O)O[C@H]1C)C[C@H](O)[C@H]2C(=O)O", "measured_attribute": "Activity", "observed": "> 10 µg/mL"}
{"molecule": "N[C@@H](Cc1cnc(C23CC4CC(CC(C4)C2)C3)[nH]1)C(=O)N[C@@H](Cc1c[nH]c2ccccc12)C(=O)N[C@@H](Cc1cnc(C23CC4CC(CC(C4)C2)C3)[nH]1)C(=O)NCc1ccccc1", "measured_attribute": "Activity", "observed": "> 10 µg/mL"}
{"molecule": "CC(C)(C)OC(=O)N[C@@H](Cc1cnc(C(C)(C)C)[nH]1)C(=O)N[C@@H](Cc1c[nH]c2ccccc12)C(=O)N[C@@H](Cc1cnc(C(C)(C)C)[nH]1)C(=O)NCc1ccccc1", "measured_attribute": "Activity", "observed": "> 10 µg/mL"}
{"molecule": "CC(C)(C)OC(=O)N[C@@H](Cc1cnc(C23CC4CC(CC(C4)C2)C3)[nH]1)C(=O)N[C@@H](Cc1c[nH]c2ccccc12)C(=O)N[C@@H](Cc1cnc(C23CC4CC(CC(C4)C2)C3)[nH]1)C(=O)NCc1ccccc1", "measured_attribute": "Activity", "observed": "> 10 µg/mL"}
{"molecule": "CC(C)(C)OC(=O)N[C@@H](Cc1cnc[nH]1)C(=O)N[C@@H](Cc1c[nH]c2ccccc12)C(=O)N[C@@H](Cc1cnc[nH]1)C(=O)NCc1ccccc1 (Boc-His-Trp-His-NHBn)", "measured_attribute": "Activity", "observed": "> 10 µg/mL"}
{"molecule": "CC(C)(C)c1ncc(C[C@H](NC(=O)[C@H](Cc2c[nH]c3ccccc23)NC(=O)[C@@H](N)Cc2cnc(C(C)(C)C)[nH]2)C(=O)NCc2ccccc2)[nH]1", "measured_attribute": "Activity", "observed": "> 10 µg/mL"}
{"molecule": "CC(C)(C)OC(=O)N[C@@H](Cc1cnc(C2CCCC2)[nH]1)C(=O)N[C@@H](Cc1c[nH]c2ccccc12)C(=O)N[C@@H](Cc1cnc(C2CCCC2)[nH]1)C(=O)NCc1ccccc1", "measured_attribute": "Activity", "observed": "> 10 µg/mL"}
{"molecule": "CC(C)c1ncc(C[C@H](NC(=O)OC(C)(C)C)C(=O)N[C@@H](Cc2c[nH]c3ccccc23)C(=O)N[C@@H](Cc2cnc(C(C)C)[nH]2)C(=O)NCc2ccccc2)[nH]1", "measured_attribute": "Activity", "observed": "> 10 µg/mL"}
